Measured values drawn from PubChem BioAssay AID1076 for this set.

Assay: LNCaP cell loss by flow event count, confirmation, cytotoxicity control for prostate differentiation activator project, single point (AID 1076);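 also: counts scatter-gated live cells after medium removal discards detached dead cells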
Conditions: flow cytometry event count, 4 d, event count, at 10 µM, stronger effect = lower value
property.label: cell event count
Answers are plain numbers.

Cn1cc(CNC(=O)C2c3ccccc3Oc3ccccc32)cn1	217
Cc1ccc2c(c1)c1c(n2CC(O)CNC(CO)(CO)CO)CCCC1 (centres undefined)	392
Cc1cc(C)n2nc(SCC(=O)Nc3ccc(F)cc3)nc2n1	343
CCOC(=O)c1c(NCc2ccc3c(c2)OCO3)c2ccccc2[nH]c1=O	357
CCCCOC(=O)Nc1cc(C(=O)OC)ccc1C(=O)OC	206
CCN1CCN(C(c2cccs2)C(C)NS(=O)(=O)c2ccc(Br)cc2)CC1 (centres undefined)	62
Cc1ccccc1-c1nc(CN2CCC(C(=O)NCC3CCCO3)CC2)c(C)o1 (centres undefined)	139
O=c1cc(N2CCN(c3ccc(F)cc3)CC2)[nH]c(=O)n1C1CCCCC1	318

Next compound, please.
Any idea what its cell event count is? The compound is `CCOC(=O)N1CCN(CC(=O)Nc2cc(C)nn2-c2nc3ccccc3s2)CC1`
245
